All values here come from paper PMC5341752.

Test system: A2780cis cells
test-method-notes: Growth inhibition, MTT assay, cisplatin-resistant A2780cis cells
Format: cell-based, human
condition-set: 72 h exposure, MTT, mean ± SEM
Readings of IC50 for the listed compounds
quantity-name: IC50 (nM)

compound	reported
CCN(CC)C1=[S+][Au-]2([S]1)[n+]1cc(C)ccc1-c1ccc(C)c[n+]12.Cl.Cl [Compound 5, [Au(5,5′-Me2BPY)(DETC)]Cl2]	230
Cc1ccc2[n+](c1)[Au-]1([S]C(N(C)C)=[S+]1)[n+]1cc(C)ccc1-2.[Cl-].[Cl-] [Compound 4, [Au(5,5′-Me2BPY)(DMTC)]Cl2]	170
Cc1ccc2[n+](c1)[Au-]1([S]C(N(Cc3ccccc3)Cc3ccccc3)=[S+]1)[n+]1cc(C)ccc1-2.[Cl-].[Cl-] [Compound 6, [Au(5,5′-Me2BPY)(DBTC)]Cl2]	15700
Cc1cccc2[n+]1[Au-]1([S]C(N(C)C)=[S+]1)[n+]1c(C)cccc1-2.[Cl-].[Cl-] [Compound 7, [Au(6,6′-Me2BPY)(DMTC)]Cl2]	230
CCN(CC)C(=S)[S-].[Au+3].[Cl-].[Cl-].c1ccc(-c2ccccn2)nc1 [Compound 2, [Au(BPY)(DETC)]Cl2]	180
Cc1cccc2[n+]1[Au-]1([S]C(N(Cc3ccccc3)Cc3ccccc3)=[S+]1)[n+]1c(C)cccc1-2.[Cl-].[Cl-] [Compound 9, [Au(6,6′-Me2BPY)(DBTC)]Cl2]	16000
CN(C)C1=[S+][Au-]2([S]1)[n+]1ccccc1-c1cccc[n+]12.[Cl-].[Cl-] [Compound 1, [Au(BPY)(DMTC)]Cl2]	170
CCN(CC)C1=[S+][Au-]2([S]1)[n+]1c(C)cccc1-c1cccc(C)[n+]12.Cl.Cl [Compound 8, [Au(6,6′-Me2BPY)(DETC)]Cl2]	450
S=C([S-])N(Cc1ccccc1)Cc1ccccc1.[Au+3].[Cl-].[Cl-].c1ccc(-c2ccccn2)nc1 [Compound 3, [Au(BPY)(DBTC)]Cl2]	14300

###

Tested on: L-540 cells
test-method-notes: Growth inhibition, MTS assay, L-540 cells
Assay type: cell-based, human
condition-set: 72 h exposure, mean ± SEM
pIC50: −log10 of the molar value.
Below: a set of entries, each annotated with reported pIC50.
quantity-name: pIC50

compound	quantity-name	reported
S=C([S-])N(Cc1ccccc1)Cc1ccccc1.[Au+3].[Cl-].[Cl-].c1ccc(-c2ccccn2)nc1 [Compound 3, [Au(BPY)(DBTC)]Cl2]	pIC50	4.92
Cc1cccc2[n+]1[Au-]1([S]C(N(Cc3ccccc3)Cc3ccccc3)=[S+]1)[n+]1c(C)cccc1-2.[Cl-].[Cl-] [Compound 9, [Au(6,6′-Me2BPY)(DBTC)]Cl2]	pIC50	4.45
CN(C)C1=[S+][Au-]2([S]1)[n+]1ccccc1-c1cccc[n+]12.[Cl-].[Cl-] [Compound 1, [Au(BPY)(DMTC)]Cl2]	pIC50	5.57
Cc1ccc2[n+](c1)[Au-]1([S]C(N(Cc3ccccc3)Cc3ccccc3)=[S+]1)[n+]1cc(C)ccc1-2.[Cl-].[Cl-] [Compound 6, [Au(5,5′-Me2BPY)(DBTC)]Cl2]	pIC50	5.19
CCN(CC)C(=S)[S-].[Au+3].[Cl-].[Cl-].c1ccc(-c2ccccn2)nc1 [Compound 2, [Au(BPY)(DETC)]Cl2]	pIC50	5.55
CCN(CC)C1=[S+][Au-]2([S]1)[n+]1c(C)cccc1-c1cccc(C)[n+]12.Cl.Cl [Compound 8, [Au(6,6′-Me2BPY)(DETC)]Cl2]	pIC50	5.21
Cc1ccc2[n+](c1)[Au-]1([S]C(N(C)C)=[S+]1)[n+]1cc(C)ccc1-2.[Cl-].[Cl-] [Compound 4, [Au(5,5′-Me2BPY)(DMTC)]Cl2]	pIC50	5.57
CCN(CC)C1=[S+][Au-]2([S]1)[n+]1cc(C)ccc1-c1ccc(C)c[n+]12.Cl.Cl [Compound 5, [Au(5,5′-Me2BPY)(DETC)]Cl2]	pIC50	5.54
Cc1cccc2[n+]1[Au-]1([S]C(N(C)C)=[S+]1)[n+]1c(C)cccc1-2.[Cl-].[Cl-] [Compound 7, [Au(6,6′-Me2BPY)(DMTC)]Cl2]	pIC50	5.44
